Recorded values, source patent US20230235054A1.

- Target desc: T1, cynoNectin4-mFc (cyno, UniProt A0A2K5WES1 32-349)
- T1 construct: Immobilized on the SPR chip; also called cyanoNectin4; not shown: mFc (mouse Fc)
- T1 sequence: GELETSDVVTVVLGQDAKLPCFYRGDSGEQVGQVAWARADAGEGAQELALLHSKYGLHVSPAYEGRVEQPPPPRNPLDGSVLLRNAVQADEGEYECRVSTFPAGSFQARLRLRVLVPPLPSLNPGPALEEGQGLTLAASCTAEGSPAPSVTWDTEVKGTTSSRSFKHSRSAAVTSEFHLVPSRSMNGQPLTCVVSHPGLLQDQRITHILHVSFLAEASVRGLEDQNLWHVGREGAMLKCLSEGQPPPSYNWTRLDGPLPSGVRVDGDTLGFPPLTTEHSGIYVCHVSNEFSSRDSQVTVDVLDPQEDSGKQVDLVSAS
- Experiment: SPR, cynoNectin4-mFc immobilized, pH 7.4
Entries and their measured kon follow.
Report the figure in M⁻¹ s⁻¹ without appending any unit label.

Record excerpt, results attached:
{"Binder": "BAP-143-07-03-12 (antibody, V domains shown, Used as a conjugate with a linker payload (CAB ADC)) VH: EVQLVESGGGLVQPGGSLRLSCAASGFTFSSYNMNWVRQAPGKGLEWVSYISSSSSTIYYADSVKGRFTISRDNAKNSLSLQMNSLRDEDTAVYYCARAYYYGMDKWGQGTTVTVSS VL: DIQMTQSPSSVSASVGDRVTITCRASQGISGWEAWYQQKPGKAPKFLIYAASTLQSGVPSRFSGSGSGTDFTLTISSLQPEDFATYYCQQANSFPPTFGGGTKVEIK", "Units label": "M⁻¹ s⁻¹", "kon": 352000}
{"Binder": "BAP-143-06-33-16 (antibody, V domains shown, Used as a conjugate with a linker payload (CAB ADC)) VH: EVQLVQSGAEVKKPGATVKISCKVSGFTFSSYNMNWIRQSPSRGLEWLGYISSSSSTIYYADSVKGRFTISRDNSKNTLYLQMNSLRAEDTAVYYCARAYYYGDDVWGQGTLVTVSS VL: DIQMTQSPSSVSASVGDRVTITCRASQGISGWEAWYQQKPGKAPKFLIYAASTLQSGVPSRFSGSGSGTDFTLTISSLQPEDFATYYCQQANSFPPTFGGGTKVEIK", "Units label": "M⁻¹ s⁻¹", "kon": 73900}
{"Binder": "BAP-143-06-24-16 (antibody, V domains shown, Used as a conjugate with a linker payload (CAB ADC)) VH: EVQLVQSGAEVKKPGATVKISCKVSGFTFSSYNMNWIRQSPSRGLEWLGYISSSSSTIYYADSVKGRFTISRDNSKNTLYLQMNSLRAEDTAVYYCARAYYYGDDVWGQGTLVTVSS VL: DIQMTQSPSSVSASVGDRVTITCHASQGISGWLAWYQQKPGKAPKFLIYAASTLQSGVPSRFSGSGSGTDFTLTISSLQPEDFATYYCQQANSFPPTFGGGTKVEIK", "Units label": "M⁻¹ s⁻¹", "kon": 655000}

stdin: For the binder BAP-143-00-01 (antibody, V domains shown, Used as a conjugate with a linker payload (CAB ADC)) VH: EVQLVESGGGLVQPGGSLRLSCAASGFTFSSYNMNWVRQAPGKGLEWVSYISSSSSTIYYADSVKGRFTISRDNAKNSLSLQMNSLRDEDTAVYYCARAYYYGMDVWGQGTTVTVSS VL: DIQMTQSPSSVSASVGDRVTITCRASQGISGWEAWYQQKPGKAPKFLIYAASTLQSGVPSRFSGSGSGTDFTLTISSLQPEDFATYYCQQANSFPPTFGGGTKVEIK , give its measured kon value.
stdout: 240000
